Tested on: Staphylococcus aureus
assay comment: MIC by NCCLS reference broth microdilution, 450 respiratory tract pathogens
Format: cell-based
condition description: β-lactamase positive and erythromycin resistant (n = 10)
readout kind: MIC

- CO/N=C1\CN(c2nc3c(cc2F)c(=O)c(C(=O)O)cn3C2CC2)CC1CN (racemic): 0.06 to 0.12 µg/mL
- COc1c(N2C[C@@H]3CCCN[C@@H]3C2)c(F)cc2c(=O)c(C(=O)O)cn(C3CC3)c12: 0.12 to 0.5 µg/mL
- NC1CCN(c2c(F)cc3c(=O)c(C(=O)O)cn(C4CC4)c3c2Cl)C1 (stereo not drawn): 0.06 to 0.25 µg/mL
- N[C@@H]1[C@H]2CN(c3nc4c(cc3F)c(=O)c(C(=O)O)cn4-c3ccc(F)cc3F)C[C@@H]12: 0.00375 to 0.25 µg/mL
- CO/N=C(\C(=O)N[C@@H]1C(=O)N2C(C(=O)O)=C(COC(N)=O)CS[C@H]12)c1ccco1: 0.06 to 0.25 µg/mL
- C[C@@H]1CN(c2c(F)c(N)c3c(=O)c(C(=O)O)cn(C4CC4)c3c2F)C[C@H](C)N1: 0.25 to 1 µg/mL

====

Recorded MIC for the following compounds
Tested on: E. coli
assay comment: microbe, parasite or virus in culture
Assay type: cell-based
condition description: Escherichia coli, E. coli KU1038, mutant type SP
readout kind: MIC (mg/L)

* O=C(O)c1cn(C2CC2)c2cc(N3CCNCC3)c(F)cc2c1=O [Ciprofloxacin, ciprofloxacin] | 0.063
* C[C@@H]1CN(c2c(F)c(N)c3c(=O)c(C(=O)O)cn(C4CC4)c3c2F)C[C@H](C)N1 [Sparfloxacin, sparfloxacin] | 0.031
* NC1CCN(c2nc3c(cc2F)c(=O)c(C(=O)O)cn3-c2ccc(F)cc2F)C1 (stereo not drawn) [Tosufloxacin, tosufloxacin] | 0.063
* N[C@@H]1[C@H]2CN(c3nc4c(cc3F)c(=O)c(C(=O)O)cn4-c3ccc(F)cc3F)C[C@@H]12 [Trovafloxacin, trovafloxacin] | 0.063
* C[C@H]1COc2c(N3CCN(C)CC3)c(F)cc3c(=O)c(C(=O)O)cn1c23 [Levofloxacin, levofloxacin] | 0.125
* CO/N=C1\CN(c2nc3c(cc2F)c(=O)c(C(=O)O)cn3C2CC2)CC1CN (racemic) [Gemifloxacin] | 0.031

====

Let's look at some molecules and their measured MIC.
Tested on: Streptococcus pneumoniae
assay comment: MIC by NCCLS reference broth microdilution, 450 respiratory tract pathogens
Assay type: cell-based
condition description: Streptococcus pneumoniae, penicillin susceptible (n = 20)
readout kind: MIC

- C[C@H]1COc2c(N3CCN(C)CC3)c(F)cc3c(=O)c(C(=O)O)cn1c23 [Levofloxacin, levofloxacin]: 0.25 to 1 µg/mL
- CO/N=C1\CN(c2nc3c(cc2F)c(=O)c(C(=O)O)cn3C2CC2)CC1CN (racemic) [Gemifloxacin]: 0.0075 to 0.03 µg/mL
- C[C@@H]1CN(c2c(F)c(N)c3c(=O)c(C(=O)O)cn(C4CC4)c3c2F)C[C@H](C)N1 [Sparfloxacin, sparfloxacin]: 0.12 to 0.5 µg/mL
- NC1CCN(c2c(F)cc3c(=O)c(C(=O)O)cn(C4CC4)c3c2Cl)C1 (stereo not shown) [Clinafloxacin, clinafloxacin]: 0.015 to 0.12 µg/mL
- N[C@@H]1[C@H]2CN(c3nc4c(cc3F)c(=O)c(C(=O)O)cn4-c3ccc(F)cc3F)C[C@@H]12 [Trovafloxacin, trovafloxacin]: 0.06 to 0.12 µg/mL
- CO/N=C(\C(=O)N[C@@H]1C(=O)N2C(C(=O)O)=C(COC(N)=O)CS[C@H]12)c1ccco1 [Cefuroxime, cefuroxime]: 0.0075 to 0.015 µg/mL
- O=C(O)c1cn(C2CC2)c2cc(N3CCNCC3)c(F)cc2c1=O [Ciprofloxacin, ciprofloxacin]: 0.06 to 2 µg/mL

====

Test system: Staphylococcus aureus
assay comment: microbe, parasite or virus in culture
Assay type: cell-based
condition description: Staphylococcus aureus, Methicillin-susceptible (9); read-out: MIC90
readout kind: MIC90 (µg/mL)

- CO/N=C(\C(=O)N[C@@H]1C(=O)N2C(C(=O)O)=C(/C=C\c3scnc3C)CS[C@H]12)c1csc(N)n1: 1
- N[C@@H]1[C@H]2CN(c3nc4c(cc3F)c(=O)c(C(=O)O)cn4-c3ccc(F)cc3F)C[C@@H]12: 0.5
- CO/N=C1\CN(c2nc3c(cc2F)c(=O)c(C(=O)O)cn3C2CC2)CC1CN (racemic): 0.25
- C[C@H]1COc2c(N3CCN(C)CC3)c(F)cc3c(=O)c(C(=O)O)cn1c23: 1

====

Tested on: Klebsiella pneumoniae
assay comment: MIC by NCCLS reference broth microdilution, 450 respiratory tract pathogens
Type: cell-based
condition description: Klebsiella pneumoniae, extended spectrum β-lactamase positive (n = 20)
readout kind: MIC90

• C[C@@H]1CN(c2c(F)c(N)c3c(=O)c(C(=O)O)cn(C4CC4)c3c2F)C[C@H](C)N1 = 0.5 µg/mL
• NC1CCN(c2c(F)cc3c(=O)c(C(=O)O)cn(C4CC4)c3c2Cl)C1 (centres unmarked) = 1 µg/mL
• CO/N=C1\CN(c2nc3c(cc2F)c(=O)c(C(=O)O)cn3C2CC2)CC1CN (racemic) = 0.5 µg/mL
• COc1c(N2C[C@@H]3CCCN[C@@H]3C2)c(F)cc2c(=O)c(C(=O)O)cn(C3CC3)c12 = 1 µg/mL
• O=C(O)c1cn(C2CC2)c2cc(N3CCNCC3)c(F)cc2c1=O = 0.5 µg/mL
• C[C@H]1COc2c(N3CCN(C)CC3)c(F)cc3c(=O)c(C(=O)O)cn1c23 = 0.5 µg/mL
• CO/N=C(\C(=O)N[C@@H]1C(=O)N2C(C(=O)O)=C(COC(N)=O)CS[C@H]12)c1ccco1 = > 128 µg/mL
• N[C@@H]1[C@H]2CN(c3nc4c(cc3F)c(=O)c(C(=O)O)cn4-c3ccc(F)cc3F)C[C@@H]12 = 0.5 µg/mL

====

Tested on: Morganella morganii
assay comment: MIC by NCCLS broth microdilution, 1100 Japanese clinical isolates 1997-1998
Assay type: cell-based
condition description: Morganella morganii (n=40)
readout kind: MIC Range

• N[C@@H]1[C@H]2CN(c3nc4c(cc3F)c(=O)c(C(=O)O)cn4-c3ccc(F)cc3F)C[C@@H]12 = 0.063 to 32 mg/L
• C[C@@H]1CN(c2c(F)c(N)c3c(=O)c(C(=O)O)cn(C4CC4)c3c2F)C[C@H](C)N1 = 0.063 to 16 mg/L
• NC1CCN(c2nc3c(cc2F)c(=O)c(C(=O)O)cn3-c2ccc(F)cc2F)C1 (centres unmarked) = 0.032 to 16 mg/L
• C[C@H]1COc2c(N3CCN(C)CC3)c(F)cc3c(=O)c(C(=O)O)cn1c23 = 0.016 to 8 mg/L
• CO/N=C1\CN(c2nc3c(cc2F)c(=O)c(C(=O)O)cn3C2CC2)CC1CN (racemic) = 0.016 to 16 mg/L

====

We begin with a simple list: items and their reported MIC50.
System: Streptococcus pneumoniae
assay comment: MIC by two-fold serial agar dilution, Sensitivity Disk agar-N (Kitasato isolates)
Assay type: cell-based
condition description: Streptococcus pneumoniae, Penicillin-resistant (19); read-out: MIC50
readout kind: MIC50 (µg/mL)

- CO/N=C(\C(=O)N[C@@H]1C(=O)N2C(C(=O)O)=C(/C=C\c3scnc3C)CS[C@H]12)c1csc(N)n1: 0.25
- CO/N=C1\CN(c2nc3c(cc2F)c(=O)c(C(=O)O)cn3C2CC2)CC1CN (racemic): 0.016
- O=C(O)c1cn(C2CC2)c2cc(N3CCNCC3)c(F)cc2c1=O: 0.5
- CC1(C)S[C@@H]2[C@H](NC(=O)[C@H](N)c3ccc(O)cc3)C(=O)N2[C@H]1C(=O)O: 0.5
- N[C@@H]1[C@H]2CN(c3nc4c(cc3F)c(=O)c(C(=O)O)cn4-c3ccc(F)cc3F)C[C@@H]12: 0.063
- C[C@H]1COc2c(N3CCN(C)CC3)c(F)cc3c(=O)c(C(=O)O)cn1c23: 0.5

====

Test system: Klebsiella pneumoniae
assay comment: MIC by NCCLS reference broth microdilution, 450 respiratory tract pathogens
Format: cell-based
condition description: Klebsiella pneumoniae, extended spectrum β-lactamase negative (n = 30)
# maps each entry to its MIC50
readout kind: MIC50 (µg/mL)

- COc1c(N2C[C@@H]3CCCN[C@@H]3C2)c(F)cc2c(=O)c(C(=O)O)cn(C3CC3)c12 [Moxifloxacin, moxifloxacin]: 0.06
- C[C@H]1COc2c(N3CCN(C)CC3)c(F)cc3c(=O)c(C(=O)O)cn1c23 [Levofloxacin, levofloxacin]: 0.06
- N[C@@H]1[C@H]2CN(c3nc4c(cc3F)c(=O)c(C(=O)O)cn4-c3ccc(F)cc3F)C[C@@H]12 [Trovafloxacin, trovafloxacin]: 0.06
- C[C@@H]1CN(c2c(F)c(N)c3c(=O)c(C(=O)O)cn(C4CC4)c3c2F)C[C@H](C)N1 [Sparfloxacin, sparfloxacin]: 0.03
- CO/N=C1\CN(c2nc3c(cc2F)c(=O)c(C(=O)O)cn3C2CC2)CC1CN (racemic) [Gemifloxacin]: 0.015
